The measurements presented in this section are drawn from PubChem BioAssay.

# Experiment: calorie-restriction mimetic ROS inhibitors, yeast – validation compound set, pilot screen (AID 2706);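 note: yeast exposed to compound for one week at 30 degrees C before staining; 100% = mean of all compound wells on the same plate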
# Condition summary: S. cerevisiae aging, superoxide DHE fluorescence; at 10 µM; stronger effect = lower value
Entries and their superoxide response (% of plate)
Provide only the numeric value, understood in %.

Below: 5 compounds and their reported superoxide response (% of plate).
COc1ccc2c3c([nH]c2c1)C1(NCC3)C(=O)Nc2ccccc21 (stereo unspecified) : 97.3
CCCCCC#CCC#CCC#CCC#CCCCC(=O)O : 123
Cc1nc(NCc2ccco2)c(C#N)c2c1COC(C)(C)C2 : 123
O=C(CCC(=O)NCCO)NCCO : 95.4
Cn1c(=O)c(C(=O)NCCO)c(O)c2ccccc21 : 104

stdin: Item under review: CCn1c(N2CCN(CC(=O)c3c(C)n(C)c4ccc(OC)cc34)CC2)nc2c1c(=O)[nH]c(=O)n2C . Reported superoxide response (% of plate)?
stdout: 100

stdin: Which superoxide response (% of plate) value is on record for CC(C)(C)N1NC2(CCCCC2)NC1=S ?
stdout: 125

stdin: Which measured superoxide response (% of plate) value corresponds to COc1ccc2c(c1OC)C(C1c3c(cc4c(c3OC)OCO4)CCN1C)OC2=O (stereo unspecified) ?
stdout: 95.3

stdin: Entry COc1cccc2c(O)cc(=O)n(C)c12 : reported superoxide response (% of plate) = ?
stdout: 98.4

stdin: # lookup: superoxide response (% of plate) of COc1ccc(C(=O)N2c3cc4c(cc3C(C)=CC2(C)C)OCO4)cc1
stdout: 98.5

stdin: Returns the measured superoxide response (% of plate) for the input compound. Input: CCNC(=S)N1CCN(CCN2C(=O)c3cccc4cccc(c34)C2=O)CC1
stdout: 96.9

---

# System name: Regulator of G-protein signaling 19 (Homo sapiens)
# Experiment: small molecules altering RGS protein interactions with GNAO1 – biochemical, multiplexed beads, flow cytometry, RGS4/7/8/16/19, primary screen (AID 1504);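 note: fluorescently labeled Galpha-o bound to GDP with aluminium fluoride binding biotinylated RGS beads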
# Condition summary: multiplexed bead flow cytometry, measured here: RGS19 interaction, at 10 µM
The other results are listed elsewhere or left out.
// classify(record): look up RGS19–Galpha-o binding response in ranges bottom range = under 90%, center range = from 90% up to 400%, top range = 400% and over

stdin: For O=[N+]([O-])C(=c1ccc2c(c1)N1C3=C(CCCC3)CC3CCCCC31N=2)[N+](=O)[O-] (stereo unspecified) , which RGS19–Galpha-o binding response bin applies?
stdout: center range

---

response: recorded values
# System name: Beta-2 adrenergic receptor (Homo sapiens)
# Experiment: agonist-induced loss of surface beta2AR – cell-based, FAP fluorogen, flow cytometry, validation set, pilot screen (AID 504459);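 note: agonist-driven loss of surface beta2AR via internalization measured by FAP dye flow cytometry; reference of the scale not given here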
# Condition summary: Am2.2-beta2AR cells, at 10 µM, stronger effect = higher value
Your answer is read as %, so omit the unit and give the number.

Past entries and their recorded results:
Cc1ccc2c(CC(=O)O)coc2c1 : -1.64
COc1ccc(/C=C(/C#N)c2cccnc2)cc1OC : -1.52
CCNC(=O)C12CCC(C)(C(=O)O1)C2(C)C (stereo unspecified) : 6.09
Cc1oc2cc(O)cc(O)c2c(=O)c1-c1ccc2c(c1)OCCCO2 : 5
CC12CN3CC(C)(CN(C1)C3c1ccc([N+](=O)[O-])o1)C2 (stereo unspecified) : -5.46

Now look at this entry.
stdin: Requested read-out response, target or system Beta-2 adrenergic receptor (Homo sapiens), entry COc1ccccc1OS(=O)(=O)c1ccc(NC(C)=O)cc1
stdout: -16.4
